Molecular target: COX-2 (Homo sapiens, UniProt P35354)
Assay: Human whole blood assay for COX-2 (LPS stimulated PGE2)
Format: cell-based
Design: endogenous in cells; host or cells: human whole blood, aspirin-pretreated, LPS-stimulated
Details: final conc 1 µM, LPS 10 µg mL^−1
Recorded Production of PGE2, +LPS values for a group of compounds are listed next.
Express your answer in ng/mL, writing the number without its unit.

**Query** Production of PGE2, +LPS for O=C1NC(=O)C(=Cc2cn(C[C@H](O)Cn3c4ccccc4c(=O)c4ccccc43)c3ccccc23)C(=O)N1 [(S)-3a] ?
**Result** 0.93

**Query** Consider the compound O=C1NC(=O)C(=Cc2cn(CCCn3c4ccccc4c(=O)c4ccccc43)c3ccccc23)C(=O)N1 and give its measured Production of PGE2, +LPS.
**Result** 1.00

**Query** Could you share which Production of PGE2, +LPS value was measured for O=C1Nc2ccccc2C1=Cc1cn(CCCn2c3ccccc3c(=O)c3ccccc32)c2ccccc12 ?
**Result** 1.01

Shifting focus to the compound that follows.
**Query** I have this compound here, O=C1Nc2ccccc2C1=Cc1cn(C[C@H](O)Cn2c3ccccc3c(=O)c3ccccc32)c2ccccc12 [(S)-3c] , and I need its recorded Production of PGE2, +LPS.
**Result** 0.97

====

Entries annotated with measured Selectivity index
Target: COX-2 (Homo sapiens, UniProt P35354)
Sequence (P35354 18-604): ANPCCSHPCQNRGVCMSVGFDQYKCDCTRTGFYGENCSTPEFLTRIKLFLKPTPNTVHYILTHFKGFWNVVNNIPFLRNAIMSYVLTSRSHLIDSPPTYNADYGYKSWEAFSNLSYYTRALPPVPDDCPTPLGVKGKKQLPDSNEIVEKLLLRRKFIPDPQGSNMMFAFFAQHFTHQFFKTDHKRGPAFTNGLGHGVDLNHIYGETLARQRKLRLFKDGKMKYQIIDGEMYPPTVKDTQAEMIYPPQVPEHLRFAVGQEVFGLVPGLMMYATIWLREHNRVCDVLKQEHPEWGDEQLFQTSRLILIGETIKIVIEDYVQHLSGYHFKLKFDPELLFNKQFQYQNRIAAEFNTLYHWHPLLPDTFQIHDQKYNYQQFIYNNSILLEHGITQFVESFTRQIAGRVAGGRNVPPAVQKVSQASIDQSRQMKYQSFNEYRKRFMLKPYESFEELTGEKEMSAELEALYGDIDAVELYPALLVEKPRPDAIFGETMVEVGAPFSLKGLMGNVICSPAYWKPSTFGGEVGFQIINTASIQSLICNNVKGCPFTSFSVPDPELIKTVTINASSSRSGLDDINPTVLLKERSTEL
Assay: COX-2 enzyme immunoassay (Cayman inhibitor screening kit)
Type: biochemical
Set-up: purchased Cayman Chemical Co. 560131
Settings: SI = IC50 (COX-1)/ IC50 (COX-2)
Reply with just the number.

**Query** COX-2 (Homo sapiens, UniProt P35354) / Selectivity index / O=C1C(=Cc2cn(C[C@H](O)Cn3c4ccccc4c(=O)c4ccccc43)c3ccccc23)c2ccccc2N1c1c(Cl)cccc1Cl [(S)-3d] : value?
**Result** 10

Next item in the queue.
**Query** API: value(readout=Selectivity index, system=COX-2 (Homo sapiens, UniProt P35354)) for record CN1C(=O)C(=Cc2cn(C[C@@H](O)Cn3c4ccccc4c(=O)c4ccccc43)c3ccccc23)C(=O)N(C)C1=O [(R)-3b]
**Result** 10

These entries and their values trace back to paper PMC6030096.
